Target: frog TRPV3 (Xenopus tropicalis TRPV3) (Xenopus tropicalis)
Sequence (F6UZP3 1-773): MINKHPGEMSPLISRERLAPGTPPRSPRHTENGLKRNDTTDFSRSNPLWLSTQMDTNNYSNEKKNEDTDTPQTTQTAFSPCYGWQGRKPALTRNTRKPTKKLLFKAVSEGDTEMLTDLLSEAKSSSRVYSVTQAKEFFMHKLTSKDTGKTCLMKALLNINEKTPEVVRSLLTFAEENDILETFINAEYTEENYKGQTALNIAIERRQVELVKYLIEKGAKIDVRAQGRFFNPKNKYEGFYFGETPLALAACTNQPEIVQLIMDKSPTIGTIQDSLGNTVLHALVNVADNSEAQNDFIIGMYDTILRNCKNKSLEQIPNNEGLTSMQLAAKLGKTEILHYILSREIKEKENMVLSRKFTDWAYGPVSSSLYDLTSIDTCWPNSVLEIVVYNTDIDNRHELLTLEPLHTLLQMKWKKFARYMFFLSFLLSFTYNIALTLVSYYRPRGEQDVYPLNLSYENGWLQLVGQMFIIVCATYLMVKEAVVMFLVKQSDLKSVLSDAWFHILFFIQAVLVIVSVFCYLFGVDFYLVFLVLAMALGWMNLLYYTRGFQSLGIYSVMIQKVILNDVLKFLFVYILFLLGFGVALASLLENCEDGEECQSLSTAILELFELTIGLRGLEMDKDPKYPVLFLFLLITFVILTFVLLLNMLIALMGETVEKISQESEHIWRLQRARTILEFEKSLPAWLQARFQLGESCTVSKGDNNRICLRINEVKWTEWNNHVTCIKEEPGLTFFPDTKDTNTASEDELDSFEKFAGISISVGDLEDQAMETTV
Experiment: whole-cell patch clamp, HEK293, Hill fit of current density
property.label: EC50 (µM)
Give a bare numeral; the unit µM is implied.

Given the compound NCCOB(c1ccccc1)c1ccccc1 , what is its reported EC50?
269
